meta.source: paper PMC3398407

# targetDesc: human M1 mAChR (Homo sapiens, UniProt P11229)
# assay: Calcium mobilization in TET-inducible hM1 TREx CHO cells
# measurementContext: read-out: Ca EC50, TET 0 ng/mL
measurementType: EC50 (µM)

>>> measurement("CCOC(=O)N1CCC(N2CCC[C@@H](NC(=O)c3ccccc3C)C2)CC1 [VU0364572]")
30.5

----------
# targetDesc: UniProt:P11229
# Sequence (P11229 1-460): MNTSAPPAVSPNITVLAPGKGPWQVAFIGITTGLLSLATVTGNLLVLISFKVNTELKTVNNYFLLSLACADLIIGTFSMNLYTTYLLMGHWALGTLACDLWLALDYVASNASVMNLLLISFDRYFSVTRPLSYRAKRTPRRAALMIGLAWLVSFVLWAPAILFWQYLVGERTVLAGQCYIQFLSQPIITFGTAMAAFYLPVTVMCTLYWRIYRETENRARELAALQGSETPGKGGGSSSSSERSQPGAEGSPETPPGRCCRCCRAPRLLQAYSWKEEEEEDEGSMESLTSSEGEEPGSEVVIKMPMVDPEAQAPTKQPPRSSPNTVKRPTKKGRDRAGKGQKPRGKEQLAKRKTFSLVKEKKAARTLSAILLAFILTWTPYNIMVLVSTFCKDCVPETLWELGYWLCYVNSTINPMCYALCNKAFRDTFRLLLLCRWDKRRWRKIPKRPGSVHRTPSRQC
# assay: Calcium mobilization in hM1 CHO cells
# measurementContext: read-out: Ca release EC50
measurementType: EC50 (nM)

>>> measurement("CCOC(=O)N1CCC(N2CCC[C@@H](NC(=O)c3ccccc3C)C2)CC1")
890
>>> measurement("CCOC(=O)N1CCC(NCCNC(=O)c2ccccc2C)CC1.Cl")
1600
